Entries annotated with measured chromatographic logP
Assay: Log P (HCOOH)
Type: physicochemical
Conditions: HCOOH (formic acid); read-out: Log P-Wert (HCOOH)
Answer with the value's number alone.

O=C(/C=C1\SCCN1Cc1ccc(F)nc1)C(F)(F)F | 2.25

Input line: Which chromatographic logP value is on record for O=C(/C=C1\SCCN1Cc1ccc(Cl)nc1)C(F)(F)F ?
Output line: 2.21
